Assay: Single-ascending dose (SAD) study in healthy subjects: plasma and urine pharmacokinetics
Conditions: human, in vivo, po, 10 mg
quantity_name: Vd/F (L)
Numeric answer only, unit L assumed.

input: What does the record list as Vd/F for CCC(=O)N[C@@H]1CCCc2c(-c3ccc4c(c3)CCC(=O)N4C)cncc21 [(R)-Compound 1] ?
output: 123

----------
Experiment: Single-ascending dose (SAD) study in healthy subjects: plasma and urine pharmacokinetics
Details: human, in vivo, po
quantity_name: half-life

input: Request the reported half-life associated with CCC(=O)N[C@@H]1CCCc2c(-c3ccc4c(c3)CCC(=O)N4C)cncc21 [(R)-Compound 1]
output: 25 to 31 h
